test_protocol: Stability of the compound in PBS buffer at pH 7.2 assessed as half life at 37 degreeC by LC-MS/MS analysis
Type: physicochemical
measurement_label: half-life (h)
Return type: number; implicit unit h.

Q: half-life lookup needed for C/C(=N\OC(=O)N(C)C[C@@H]1CCCN1)[C@H]1CC[C@H]2[C@@H]3CCC4=CC(=O)CC[C@]4(C)[C@H]3CC[C@]12C.Cl , thanks.
Ans: 1.9

---

test_protocol: AUC (0-last) in Sprague-Dawley rat at 2 mg/kg,iv measured for 0.08 to 10 hrs by LC-MS/MS analysis
Type: ADME, organism-based
Design: dose 2 mg/kg, time 0.08-10 hrs, route iv
condition_notes: in vivo
Below is a list of entries, each paired with its recorded AUC(0-t) value.
Return type: number; implicit unit ng·h/mL.

{"columns": ["structure_as_smiles", "measurement_units", "AUC(0-t)"],
 "data": [
  ["C/C(=N\\OCOP(=O)([O-])[O-])[C@H]1CC[C@H]2[C@@H]3CCC4=CC(=O)CC[C@]4(C)[C@H]3CC[C@]12C.[Na+].[Na+]", "ng·h/mL", 22]
]}

Q: AUC(0-t) lookup needed for C/C(=N\OC(=O)N(C)C[C@@H]1CCCN1)[C@H]1CC[C@H]2[C@@H]3CCC4=CC(=O)CC[C@]4(C)[C@H]3CC[C@]12C.Cl , thanks.
Ans: 62.9

---

test_protocol: Stability of the compound in PBS buffer at 37 degreeC
Assay type: physicochemical
measurement_label: half-life (h)
Return type: number; implicit unit h.

Q: half-life lookup needed for C/C(=N\OC(=O)N(C)C[C@@H]1CCCN1)[C@H]1CC[C@H]2[C@@H]3CCC4=CC(=O)CC[C@]4(C)[C@H]3CC[C@]12C.Cl , thanks.
Ans: 1

---

test_protocol: Stability of the compound in PBS buffer at pH 7.2 assessed as half life in the presence of MeCN by HPLC analysis
Type: physicochemical
measurement_label: half-life (h)
Return type: number; implicit unit h.

Q: half-life lookup needed for C/C(=N\OC(=O)N(C)CCNCCOC(F)(F)F)[C@H]1CC[C@H]2[C@@H]3CCC4=CC(=O)CC[C@]4(C)[C@H]3CC[C@]12C.Cl , thanks.
Ans: 28.5

---

test_protocol: Stability of the compound in PBS buffer at pH 7.2 assessed as half life at 25 degreeC by HPLC analysis
Format: physicochemical
measurement_label: half-life (h)
Return type: number; implicit unit h.

Examples with their reported half-life follow.
{"columns": ["structure_as_smiles", "readout_number"],
 "data": [
  ["CNCCN(C)C(=O)O/N=C(\\C)[C@H]1CC[C@H]2[C@@H]3CCC4=CC(=O)CC[C@]4(C)[C@H]3CC[C@]12C.Cl", 46.9],
  ["C/C(=N\\OC(=O)OCCN)[C@H]1CC[C@H]2[C@@H]3CCC4=CC(=O)CC[C@]4(C)[C@H]3CC[C@]12C.Cl", 0.11],
  ["CC(=O)[C@H]1CC[C@H]2[C@@H]3CCC4=C/C(=N/OC(=O)[C@@H](N)C(C)C)CC[C@]4(C)[C@H]3CC[C@]12C.Cl", 10]
]}

// switching to the query molecule
Q: half-life lookup needed for C/C(=N\OC(=O)OC[C@@H]1CCCN1)[C@H]1CC[C@H]2[C@@H]3CCC4=CC(=O)CC[C@]4(C)[C@H]3CC[C@]12C.Cl , thanks.
Ans: 0.09

---

test_protocol: Stability of the compound in 0.15 M NaCl
Format: physicochemical
measurement_label: half-life

Q: half-life lookup needed for C/C(=N\OC(=O)N(C)C[C@@H]1CCCN1)[C@H]1CC[C@H]2[C@@H]3CCC4=CC(=O)CC[C@]4(C)[C@H]3CC[C@]12C.Cl , thanks.
Ans: > 10 days

---

test_protocol: Stability of the compound in PBS buffer at pH 7.2 assessed as half life at 25 degreeC by HPLC analysis
Type: physicochemical
measurement_label: half-life (h)
Return type: number; implicit unit h.

{"columns": ["structure_as_smiles", "measurement_units", "half-life"],
 "data": [
  ["C/C(=N\\OC(=O)N(C)C[C@@H]1CCCN1)[C@H]1CC[C@H]2[C@@H]3CCC4=CC(=O)CC[C@]4(C)[C@H]3CC[C@]12C.Cl", "h", 1.9]
]}

// switching to the query compound
Q: half-life lookup needed for CNCCN(CCO)C(=O)O/N=C(\C)[C@H]1CC[C@H]2[C@@H]3CCC4=CC(=O)CC[C@]4(C)[C@H]3CC[C@]12C.Cl , thanks.
Ans: 24.8

---

Below is a list of entries, each paired with its recorded AUC(0-t) value.
test_protocol: AUC (0-last) in Sprague-Dawley rat at 10 mg/kg, IM measured for 0.25 to 10 hrs by LC-MS/MS analysis
Format: ADME, organism-based
Parameters: time upper 10 hrs, dose 10 mg/kg, time lower 0.25 hrs, route im
condition_notes: in vivo
Return type: number; implicit unit ng·h/mL.

{"columns": ["structure_as_smiles", "readout_number"],
 "data": [
  ["C/C(=N\\OC(=O)N(C)C[C@@H]1CCCN1)[C@H]1CC[C@H]2[C@@H]3CCC4=CC(=O)CC[C@]4(C)[C@H]3CC[C@]12C.Cl", 288]
]}

// switching to the query compound
Q: AUC(0-t) lookup needed for C/C(=N\OCOP(=O)([O-])[O-])[C@H]1CC[C@H]2[C@@H]3CCC4=CC(=O)CC[C@]4(C)[C@H]3CC[C@]12C.[Na+].[Na+] , thanks.
Ans: 724

---

test_protocol: Stability of the compound in 1 M NaCl
Format: physicochemical
measurement_label: half-life (h)
Return type: number; implicit unit h.

Q: half-life lookup needed for C/C(=N\OC(=O)N(C)C[C@@H]1CCCN1)[C@H]1CC[C@H]2[C@@H]3CCC4=CC(=O)CC[C@]4(C)[C@H]3CC[C@]12C.Cl , thanks.
Ans: 168

---

Below is a list of entries, each paired with its recorded half-life value.
test_protocol: Stability in human plasma assessed as half life at 37 degreeC by LC-MS/MS analysis
Assay type: ADME, cell-free
Return type: number; implicit unit h.

Q: half-life lookup needed for CNCCN(CCO)C(=O)O/N=C(\C)[C@H]1CC[C@H]2[C@@H]3CCC4=CC(=O)CC[C@]4(C)[C@H]3CC[C@]12C.Cl , thanks.
Ans: 1.6

Q: half-life lookup needed for C/C(=N\OC(=O)N(C)CCNCCOC(F)(F)F)[C@H]1CC[C@H]2[C@@H]3CCC4=CC(=O)CC[C@]4(C)[C@H]3CC[C@]12C.Cl , thanks.
Ans: 1.7

Q: half-life lookup needed for C/C(=N\OC(=O)OCCN(C)C)[C@H]1CC[C@H]2[C@@H]3CCC4=CC(=O)CC[C@]4(C)[C@H]3CC[C@]12C.Cl , thanks.
Ans: 7.2

Q: half-life lookup needed for CNCCN(C)C(=O)O/N=C(\C)[C@H]1CC[C@H]2[C@@H]3CCC4=CC(=O)CC[C@]4(C)[C@H]3CC[C@]12C.Cl , thanks.
Ans: 2.7

Q: half-life lookup needed for C/C(=N\OC(=O)N(C)CCNCCF)[C@H]1CC[C@H]2[C@@H]3CCC4=CC(=O)CC[C@]4(C)[C@H]3CC[C@]12C.Cl , thanks.
Ans: 2.2

Q: half-life lookup needed for C/C(=N\OC(=O)N(C)CCNCCO)[C@H]1CC[C@H]2[C@@H]3CCC4=CC(=O)CC[C@]4(C)[C@H]3CC[C@]12C.Cl , thanks.
Ans: 2.8

Q: half-life lookup needed for C/C(=N\OC(=O)N(C)C[C@@H]1CCCN1C)[C@H]1CC[C@H]2[C@@H]3CCC4=CC(=O)CC[C@]4(C)[C@H]3CC[C@]12C.Cl , thanks.
Ans: 0.9

---

test_protocol: Stability of the compound at pH 5
Format: physicochemical
condition_notes: buffer
measurement_label: half-life (h)
Return type: number; implicit unit h.

Q: half-life lookup needed for C/C(=N\OC(=O)N(C)C[C@@H]1CCCN1)[C@H]1CC[C@H]2[C@@H]3CCC4=CC(=O)CC[C@]4(C)[C@H]3CC[C@]12C.Cl , thanks.
Ans: 175

---

test_protocol: Solubility of compound in normal saline
Type: physicochemical
measurement_label: solubility

Q: solubility lookup needed for C/C(=N\OC(=O)N(C)C[C@@H]1CCCN1)[C@H]1CC[C@H]2[C@@H]3CCC4=CC(=O)CC[C@]4(C)[C@H]3CC[C@]12C.Cl , thanks.
Ans: > 50 mg/mL

---

test_protocol: Aqueous solubility of compound
Assay type: physicochemical
condition_notes: buffer
measurement_label: solubility

Examples with their reported solubility follow.
{"columns": ["structure_as_smiles", "measurement_label", "result"],
 "data": [
  ["C/C(=N\\OCOP(=O)([O-])[O-])[C@H]1CC[C@H]2[C@@H]3CCC4=CC(=O)CC[C@]4(C)[C@H]3CC[C@]12C.[Na+].[Na+]", "solubility", "> 150 mg/mL"],
  ["C/C(=N\\OC(=O)N(C)CCNCCOC(F)(F)F)[C@H]1CC[C@H]2[C@@H]3CCC4=CC(=O)CC[C@]4(C)[C@H]3CC[C@]12C.Cl", "solubility", "< 1 mg/mL"],
  ["CC(=O)[C@H]1CC[C@H]2[C@@H]3CCC4=C/C(=N/OC(=O)[C@@H](N)C(C)C)CC[C@]4(C)[C@H]3CC[C@]12C.Cl", "solubility", "172 µM"]
]}

// switching to the query compound
Q: solubility lookup needed for C/C(=N\OC(=O)[C@@H](N)C(C)C)[C@H]1CC[C@H]2[C@@H]3CCC4=CC(=O)CC[C@]4(C)[C@H]3CC[C@]12C.Cl , thanks.
Ans: 146 µM
